molecular target: Protein smoothened (Mus musculus, UniProt P56726); assay: Inhibition of mouse SMO expressed in NIH-3T3 cells
Sequence (P56726 whole entry): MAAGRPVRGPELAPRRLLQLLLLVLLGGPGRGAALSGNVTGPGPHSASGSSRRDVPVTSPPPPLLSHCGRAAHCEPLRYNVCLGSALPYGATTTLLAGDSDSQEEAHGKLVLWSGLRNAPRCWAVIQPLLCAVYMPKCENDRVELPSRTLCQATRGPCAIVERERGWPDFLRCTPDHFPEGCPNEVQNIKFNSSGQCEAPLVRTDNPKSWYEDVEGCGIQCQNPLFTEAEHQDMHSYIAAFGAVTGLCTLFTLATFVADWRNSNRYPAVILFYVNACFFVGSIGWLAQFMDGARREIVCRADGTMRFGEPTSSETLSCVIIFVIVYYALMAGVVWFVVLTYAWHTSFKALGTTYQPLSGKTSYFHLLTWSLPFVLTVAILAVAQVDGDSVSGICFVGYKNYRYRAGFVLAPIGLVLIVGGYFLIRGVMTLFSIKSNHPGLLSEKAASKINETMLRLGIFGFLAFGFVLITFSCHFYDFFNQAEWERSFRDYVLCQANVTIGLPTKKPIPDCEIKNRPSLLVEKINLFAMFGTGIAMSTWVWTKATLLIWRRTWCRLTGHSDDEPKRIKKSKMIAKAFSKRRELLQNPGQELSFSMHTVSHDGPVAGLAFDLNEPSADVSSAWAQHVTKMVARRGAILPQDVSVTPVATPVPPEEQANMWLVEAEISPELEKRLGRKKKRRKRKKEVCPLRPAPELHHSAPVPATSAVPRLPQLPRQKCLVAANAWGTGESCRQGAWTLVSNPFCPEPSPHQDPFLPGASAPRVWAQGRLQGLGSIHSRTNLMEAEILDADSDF
observable: IC50 (nM)
All answers are understood in nM, so give the number only.

// query Value lookup for IC50; key = "O=C(c1cccs1)N1CCN(c2nnc(-c3ccccc3)c3ccccc23)CC1"
// result 22

###

biological target: UniProt:P08684; assay: Inhibition of human CYP3A4 at 3 uM by HPLC-MS; type: ADME
Sequence (P08684 whole entry): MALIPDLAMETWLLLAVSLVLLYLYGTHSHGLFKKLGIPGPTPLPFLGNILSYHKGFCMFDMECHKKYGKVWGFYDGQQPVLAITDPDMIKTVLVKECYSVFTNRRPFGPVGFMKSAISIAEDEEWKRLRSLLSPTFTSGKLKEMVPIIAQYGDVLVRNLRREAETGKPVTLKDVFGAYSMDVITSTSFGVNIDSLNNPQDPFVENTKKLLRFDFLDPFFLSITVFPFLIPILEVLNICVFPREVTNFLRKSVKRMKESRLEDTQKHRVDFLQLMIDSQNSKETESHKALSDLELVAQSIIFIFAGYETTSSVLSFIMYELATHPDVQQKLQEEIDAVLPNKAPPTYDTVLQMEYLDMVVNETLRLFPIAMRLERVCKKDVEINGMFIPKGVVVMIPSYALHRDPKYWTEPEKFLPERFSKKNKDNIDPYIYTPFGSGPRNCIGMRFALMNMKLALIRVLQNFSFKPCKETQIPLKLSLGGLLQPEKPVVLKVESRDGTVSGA
Record TRUE whenever inhibition at 3 µM is at 20% or higher; record FALSE when lower.

compoundString	label
C[C@@H]1CN(C(=O)c2ccccc2)CCN1c1nnc(-c2ccc(C(C)(C)C)cc2)c2ccccc12	TRUE

// query Kindly determine if inhibition at 3 µM recorded for "C[C@H]1CN(c2nnc(-c3ccncc3)c3ccccc23)CCN1C(=O)c1ccccc1" is above or exactly 20%.
// result TRUE

// query Another compound: "CC(C)c1ccc(-c2nnc(N3CCN(C(=O)c4ccccc4)C[C@H]3C)c3ccccc23)cc1"
// result FALSE

// query Another compound: "C[C@H]1CN(c2nnc(N3CC=CC=N3)c3ccccc23)CCN1C(=O)c1ccccc1"
// result FALSE

// query Another compound: "Cc1ccc(-c2nnc(N3CCN(C(=O)c4ccccc4)[C@@H](C)C3)c3ccccc23)cc1"
// result FALSE

// query Another compound: "Cc1ccc(-c2nnc(N3CCN(C(=O)c4ccccc4)C[C@H]3C)c3ccccc23)cc1"
// result FALSE

// query Another compound: "C[C@@H]1CN(C(=O)c2ccccc2)CCN1c1nnc(-c2ccc(CO)cc2)c2ccccc12"
// result FALSE

// query Another compound: "C[C@H]1CN(c2nnc(-c3cccnc3)c3ccccc23)CCN1C(=O)c1ccccc1"
// result FALSE

###

test: Volume of distribution at steady state in cynomolgus monkey at 0.5 mg/kg, iv; type: ADME, organism-based, Macaca fascicularis; parameters: dose 0.5 mg/kg, route intravenous; settings: in vivo, read-out: Vdss
observable: Vd (L/kg)
All answers are understood in L/kg, so give the number only.

// query Value lookup for Vd; key = "C[C@@H]1CN(C(=O)c2ccccc2)CCN1c1nnc(-c2ccc(C(F)(F)F)cc2)c2ccccc12"
// result 2.52

###

assay: Clearance in rat at 0.5 mg/kg, iv; format: ADME, organism-based; parameters: dose 0.5 mg/kg, route intravenous; conditions: in vivo
observable: clearance (mL/min/kg)
All answers are understood in mL/min/kg, so give the number only.

// query Value lookup for clearance; key = "C[C@@H]1CN(C(=O)c2ccccc2)CCN1c1nnc(-c2ccc(C(F)(F)F)cc2)c2ccccc12"
// result 6.83

###

assay: Metabolic stability in rat liver microsome assessed as compound turnover after 30 mins; format: ADME; settings: liver microsomes, read-out: Stability
observable: metabolised at 0.5 h (%)
All answers are understood in %, so give the number only.

compoundString	metabolised at 0.5 h [%]
C[C@@H]1CN(C(=O)c2ccccc2)CCN1c1nnc(-c2ccc(C(C)(C)C)cc2)c2ccccc12	94
C[C@H]1CN(C(=O)c2ccccc2)CCN1c1nnc(-c2ccccc2)c2ccccc12	23
Cc1ccc(-c2nnc(N3CCN(C(=O)c4ccccc4)[C@@H](C)C3)c3ccccc23)cc1	43
C[C@@H]1CN(c2nnc(-c3ccccc3)c3ccccc23)CCN1C(=O)c1ccccc1	21
C[C@@H]1CN(C(=O)c2ccccc2)CCN1c1nnc(-c2ccc(C(F)(F)F)cc2)c2ccccc12	11
O=C(c1nccs1)N1CCN(c2nnc(-c3ccccc3)c3ccccc23)CC1	25

// query Value lookup for metabolised at 0.5 h; key = "C[C@@H]1CN(C(=O)c2ccccc2)CCN1c1nnc(-c2ccc(CO)cc2)c2ccccc12"
// result 13

// query Another molecule: "O=C(c1ccccc1)N1CCN(c2nnc(-c3ccccc3)c3ccccc23)CC1"
// result 12
